- test-summary: physchem
- condition: pH 7.4 buffer
Parameter: solubility thermodynamic. Scope: all listed entries.
Return type: number; implicit unit µM.

{"columns": ["compound", "unit-tag", "solubility thermodynamic"],
 "data": [
  ["N#Cc1c(C2CCCNC2)cc(-c2c(O)cccc2OCC2CC2)nc1N (configuration not stated)", "µM", 8.1],
  ["CN1CCN(c2ccc(NC(=O)c3nnc(Nc4ccccc4F)o3)cn2)CC1", "µM", 91.2],
  ["COc1cc2ncnc(Nc3ccc(Oc4ccccc4)cc3)c2cc1OC", "µM", 0.3],
  ["CN(c1ccnc(Nc2cccc(S(C)(=O)=O)c2)n1)c1cccc2[nH]ncc12", "µM", 13.5],
  ["O=C1NC(=O)C2(CCc3ccccc3C2)N1 (configuration not stated)", "µM", 224],
  ["Oc1ncnc2c1nnn2Cc1ccccc1", "µM", 209],
  ["C[C@H](NC1=NC(=O)[C@](C)(C(F)(F)F)S1)c1ccccc1F", "µM", 87.1],
  ["CN(C(=O)Cc1ccc(S(C)(=O)=O)cc1)[C@@H]1CCN(Cc2nc3ccccc3s2)C[C@@H]1F", "µM", 9.1]
]}

Could you share which solubility thermodynamic value was measured for Cc1sc2ncnc(SCC(=O)N3CCCC3)c2c1C ?
100

Could you share which solubility thermodynamic value was measured for COc1cc2ncnc(Nc3cccc(Cl)c3F)c2cc1CN1C[C@H](OC)C[C@@H]1C(N)=O ?
436

Could you share which solubility thermodynamic value was measured for CC(C)(C(=O)Nc1nnc(C(=O)Nc2ccc(N3CCOCC3)cc2)o1)c1ccc(Cl)cc1 ?
200

Could you share which solubility thermodynamic value was measured for COc1cccc(NC(=O)Cc2ccc(Oc3ncnc4cc(OC)c(OC)cc34)cc2)c1 ?
2

Could you share which solubility thermodynamic value was measured for COc1cc(S(N)(=O)=O)c(OC)cc1N ?
93.3

Could you share which solubility thermodynamic value was measured for O=[N+]([O-])c1ccc(CCl)cc1 ?
501

Could you share which solubility thermodynamic value was measured for COc1cc(-c2cnc(N)c(-c3nc4ccccc4[nH]3)c2)cc(OC)c1OC ?
0.5

Could you share which solubility thermodynamic value was measured for O=C(Nc1ccccc1)c1cc(-n2cnnc2)ccc1Cl ?
407

Could you share which solubility thermodynamic value was measured for COc1cc2ncnc(Nc3ccc4c(ccn4Cc4ccccc4)c3)c2cc1OC ?
0.6

====

- test-summary: physchem
- condition: pH 7.4 buffer
Please use criterion met whenever solubility thermodynamic is not below 20 µM, and criterion not met whenever it is.

{"columns": ["compound", "group"],
 "data": [
  ["COc1ccc(-c2cc(N)c(C(N)=O)s2)cc1", "criterion met"],
  ["O=c1c2ccccc2[nH]n1CCc1ccccc1", "criterion met"],
  ["COc1cc(C(=O)NS(=O)(=O)c2ccccc2)ccc1Cn1ccc2ccc(NC(=O)OC3CCCC3)cc21", "criterion not met"],
  ["CN(C)C(=O)[C@H](Cc1ccccc1)NC(=O)c1cc2cc(F)ccc2[nH]1", "criterion not met"],
  ["O=c1ncn2nc(Sc3ccc(F)cc3F)ccc2c1-c1c(Cl)cccc1Cl", "criterion not met"],
  ["CC(C)Oc1cc(OCCc2ccsc2)cc(C(=O)Nc2ccc(C(=O)O)cn2)c1", "criterion met"],
  ["CCn1cc(NC(=O)Cc2ccc(Oc3ccnc4cc(OC)ccc34)cc2OC)cn1", "criterion not met"],
  ["COc1cc2ncnc(Nc3ccc(F)c(Cl)c3)c2cc1CN1CCC[C@@H]1C(N)=O", "criterion not met"],
  ["CN(C(=O)Cc1ccc(-n2cnnn2)cc1)C1CCN(Cc2nc3c(s2)CCCC3)CC1", "criterion not met"],
  ["CC(C)Cn1cnc2c(N)nc3ccccc3c21", "criterion met"]
]}

Answer whether solubility thermodynamic of CCc1ccc(-c2cc(O)c3ccccc3n2)cc1 is greater than or equal to 20 µM.
criterion not met

Answer whether solubility thermodynamic of Nc1ccc2c(c1)cc(C(=O)O)n2Cc1ccc(Cl)c(Cl)c1 is greater than or equal to 20 µM.
criterion met

Answer whether solubility thermodynamic of CC12CCC(=O)C=C1CCC1C2CCC2(C)C(O)CCC12 (centres undefined) is greater than or equal to 20 µM.
criterion met

Answer whether solubility thermodynamic of NC(=O)c1ccc(I)c([N+](=O)[O-])c1 is greater than or equal to 20 µM.
criterion met

Answer whether solubility thermodynamic of CC(C)Oc1cc(OCCc2ccncc2)cc(C(=O)Nc2ccc(C(=O)O)cn2)c1 is greater than or equal to 20 µM.
criterion met
